Taken from patent US6143769A.

- Assay Protocol: clinical
- Run Conditions: human, plasma, po, 2 mg
Readout Type: concentration at 4 h (ng/mL)
Output spec: scalar in ng/mL, unitless text.

stdin: Give recorded concentration at 4 h. CCOc1cc(CC(=O)N[C@@H](CC(C)C)c2ccccc2N2CCCCC2)ccc1C(=O)O [AG-EE 623 ZW]
stdout: 1.5

###

- Assay Protocol: clinical
- Run Conditions: human, plasma, po, 1 mg
Readout Type: concentration at 3 h (ng/mL)
Output spec: scalar in ng/mL, unitless text.

stdin: Give recorded concentration at 3 h. `CCOc1cc(CC(=O)N[C@@H](CC(C)C)c2ccccc2N2CCCCC2)ccc1C(=O)O`
stdout: 1.4

###

- Assay Protocol: clinical
- Run Conditions: human, plasma, po, 1 mg
Readout Type: concentration at 1 h (ng/mL)
Output spec: scalar in ng/mL, unitless text.

stdin: Give recorded concentration at 1 h. CCOc1cc(CC(=O)NC(CC(C)C)c2ccccc2N2CCCCC2)ccc1C(=O)O (racemic)
stdout: 39.1

###

- Assay Protocol: clinical
- Run Conditions: human, plasma, iv, 1 mg
Readout Type: concentration at 0.75 h (ng/mL)
Output spec: scalar in ng/mL, unitless text.

stdin: Give recorded concentration at 0.75 h. CCOc1cc(CC(=O)NC(CC(C)C)c2ccccc2N2CCCCC2)ccc1C(=O)O (racemic) [AG-EE 388 ZW]
stdout: 44.2

###

- Assay Protocol: Study 3: plasma concentration of active substance, single test subject
- Format: in vivo, human
- Run Conditions: human, plasma, po, 4 mg, 4 mg capsule; read-out: Maximum concentration
Readout Type: Cmax (ng/mL)
Output spec: scalar in ng/mL, unitless text.

stdin: Give recorded Cmax. CCOc1cc(CC(=O)NC(CC(C)C)c2ccccc2N2CCCCC2)ccc1C(=O)O (racemic)
stdout: 150

###

- Assay Protocol: Study 3: plasma concentration of active substance, single test subject
- Format: in vivo, human
- Run Conditions: human, plasma, po, 2 mg, 2 mg capsule; read-out: Maximum concentration
Readout Type: Cmax

stdin: Give recorded Cmax. CCOc1cc(CC(=O)N[C@@H](CC(C)C)c2ccccc2N2CCCCC2)ccc1C(=O)O [AG-EE 623 ZW]
stdout: 22 to 24 ng/mL

stdin: Give recorded Cmax. CCOc1cc(CC(=O)NC(CC(C)C)c2ccccc2N2CCCCC2)ccc1C(=O)O (racemic) [AG-EE 388 ZW]
stdout: 82 ng/mL

###

- Assay Protocol: Study 2: plasma concentration, HPLC
- Format: in vivo, human
- Run Conditions: human, plasma, po, 2 mg, 2 mg tablet, 5.00 h
Readout Type: concentration at 5 h
I'd appreciate it if you wrote the number followed by its unit.

stdin: Give recorded concentration at 5 h. CCOc1cc(CC(=O)NC(CC(C)C)c2ccccc2N2CCCCC2)ccc1C(=O)O (racemic)
stdout: 13.2 ng/mL

###

- Assay Protocol: clinical
- Run Conditions: human, plasma, iv, 1 mg
Readout Type: concentration at 6 h

stdin: Give recorded concentration at 6 h. CCOc1cc(CC(=O)NC(CC(C)C)c2ccccc2N2CCCCC2)ccc1C(=O)O (racemic) [AG-EE 388 ZW]
stdout: 4 ng/mL

###

- Assay Protocol: Study 3: plasma concentration of active substance, single test subject
- Type: in vivo, human
- Run Conditions: human, plasma, po; 4 mg, 2.50 h
Readout Type: concentration at 2.5 h (ng/mL)
Output spec: scalar in ng/mL, unitless text.

stdin: Give recorded concentration at 2.5 h. CCOc1cc(CC(=O)NC(CC(C)C)c2ccccc2N2CCCCC2)ccc1C(=O)O (racemic) [AG-EE 388 ZW]
stdout: 119
